biological target: recombinant IL4I1 (Homo sapiens); test: IL4I1 Enzymatic Assay (Amplex Red/HRP coupled detection of H2O2, fluorescence); details: 1 nM recombinant IL4I1; four-hour pre-incubation with compound; 1 mM each Phe, Tyr, Trp; ten-point titration
Sequence (Q96RQ9 22-567): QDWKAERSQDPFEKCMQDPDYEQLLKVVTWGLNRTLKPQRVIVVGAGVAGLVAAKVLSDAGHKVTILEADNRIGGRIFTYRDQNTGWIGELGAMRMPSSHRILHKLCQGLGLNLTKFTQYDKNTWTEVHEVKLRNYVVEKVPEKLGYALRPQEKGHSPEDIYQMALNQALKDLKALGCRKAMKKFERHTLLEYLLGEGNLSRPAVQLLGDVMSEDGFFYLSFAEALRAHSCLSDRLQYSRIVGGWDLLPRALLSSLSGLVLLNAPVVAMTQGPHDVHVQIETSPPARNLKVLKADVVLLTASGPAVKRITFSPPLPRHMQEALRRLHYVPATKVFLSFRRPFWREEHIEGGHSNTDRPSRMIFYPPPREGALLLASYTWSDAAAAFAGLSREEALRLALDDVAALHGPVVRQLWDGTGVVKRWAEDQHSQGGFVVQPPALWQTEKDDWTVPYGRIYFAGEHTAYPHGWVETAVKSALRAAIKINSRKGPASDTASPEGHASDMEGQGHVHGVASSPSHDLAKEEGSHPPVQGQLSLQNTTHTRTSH
metricName: log10 EC50 (log10 of the value in nM)

compound: C[C@@H](CO)n1cc(C(=O)NCc2nnc(-c3ccccc3)s2)nn1 [Example 166]
metricName: log10 EC50
measuredValue: 0.95

compound: CC[C@H](c1ccc(F)cc1)n1cc(C(=O)NCc2nnc(-c3ccccc3)s2)nn1 [Example 256]
metricName: log10 EC50
measuredValue: 0.48

compound: COc1ccsc1C(=O)NCc1nnc(-c2ccccc2)s1 [Example 29]
metricName: log10 EC50
measuredValue: 1.00

compound: Cn1cc(C(=O)NCc2nnc(-c3ccc(F)cc3)s2)nn1 [Example 219]
metricName: log10 EC50
measuredValue: 2.19

compound: CC(C)Cc1cc(C(=O)NCc2nnc(-c3ccccc3)s2)no1 [Example 7]
metricName: log10 EC50
measuredValue: 0.90

compound: O=C(NCc1nnc(-c2ccccc2)s1)c1cn(C2CCC2)nn1 [Example 68]
metricName: log10 EC50
measuredValue: 1.23

compound: CC(C)(O)c1cc(C(=O)NCc2ccc(-c3ccccc3)nn2)on1 [Example 254]
metricName: log10 EC50
measuredValue: 3.00

compound: O=C(NCc1cc(-c2ccccc2)on1)c1cn(CC(F)(F)F)nn1 [Example 232]
metricName: log10 EC50
measuredValue: 0.78

compound: O=C(NCc1nnc(-c2ccccc2)s1)c1cn([C@@H]2C[C@@H](O)[C@@H](O)C2)nn1 [Example 190]
metricName: log10 EC50
measuredValue: 2.70

compound: O=C(NCc1nnc(-c2ccccc2)s1)c1cn(CC(F)F)nn1 [Example 213]
metricName: log10 EC50
measuredValue: 0.48

compound: Cc1n[nH]c(C(=O)NCc2nnc(-c3ccccc3)s2)n1 [Example 27]
metricName: log10 EC50
measuredValue: 2.47

compound: O=C(NCc1nnc(-c2ccncc2)s1)c1cn(CC(F)F)nn1 [Example 347]
metricName: log10 EC50
measuredValue: 0.85

compound: C[C@H](CO)n1cc(C(=O)NCc2nnc(-c3ccccc3)s2)nn1 [Example 303]
metricName: log10 EC50
measuredValue: 0.78

compound: O=C(NCc1nnc(-c2ccccc2)s1)c1cn(-c2ccccn2)nn1 [Example 310]
metricName: log10 EC50
measuredValue: 2.26

compound: Cn1cc(C(=O)NCc2nnc(N3CCCCC3)s2)nn1 [Example 294]
metricName: log10 EC50
measuredValue: 2.40

compound: Cc1ccc(-n2cc(C(=O)NCc3ccc(-c4cccs4)nn3)nn2)c(C)n1 [Example 121]
metricName: log10 EC50
measuredValue: 1.38

compound: C[C@H](O)[C@@H](C)n1cc(C(=O)NCc2nnc(-c3ccccc3)s2)nn1 [Example 169]
metricName: log10 EC50
measuredValue: 1.83

compound: Cc1onc(C(=O)NCc2nnc(-c3ccccc3)s2)c1C [Example 24]
metricName: log10 EC50
measuredValue: 1.97

compound: C[C@H](O)[C@H](CO)n1cc(C(=O)NCc2nnc(-c3ccccc3)s2)nn1 [Example 186]
metricName: log10 EC50
measuredValue: 2.44
